Provenance of the data: ChEMBL document CHEMBL4831547

assay: Selectivity index, ratio of CC50 for human MRC5 cells to EC50 for Leishmania infantum MHOM/MA(BE)/67/ITMAP263; assay type: toxicity; settings: read-out: Ratio CC50/EC50
outcome.measure: selectivity ratio
Please respond with just the number, no unit label.

>>> quantitative_result("O=C(Nc1ccc2c(c1)B(O)OC2)c1cn(C2CCC2)nc1C(F)(F)F")
53
>>> quantitative_result("Cc1c(C(=O)Nc2ccc3c(c2)B(O)OC3)cnn1-c1ccccn1")
15
>>> quantitative_result("COc1ccccc1-n1cc(C(=O)Nc2ccc3c(c2)B(O)OC3)c(C)n1")
7.3

Okay, next one:
selectivity ratio for Cc1c(-c2ccccn2)coc1C(=O)Nc1ccc2c(c1)B(O)OC2 is 37
